# test_description: Inhibitory activity against non-nucleoside reverse transcriptase inhibitors (NNRTI) -resistant HIV-1 strain A17 with a Y181C mutation in RT (reverse transcriptase)
pIC50: −log10 of the molar value.
property_name: pIC50

>>> assay_result("S=C(NCCc1cccs1)Nc1ccc(Br)cn1")
7.32
>>> assay_result("Oc1ccc(CCNC(=S)Nc2ccc(Br)cn2)cc1")
7.15
>>> assay_result("CCC(NC(=S)Nc1nccs1)c1ccccc1 (stereo not drawn)")
5.68
